Target chain: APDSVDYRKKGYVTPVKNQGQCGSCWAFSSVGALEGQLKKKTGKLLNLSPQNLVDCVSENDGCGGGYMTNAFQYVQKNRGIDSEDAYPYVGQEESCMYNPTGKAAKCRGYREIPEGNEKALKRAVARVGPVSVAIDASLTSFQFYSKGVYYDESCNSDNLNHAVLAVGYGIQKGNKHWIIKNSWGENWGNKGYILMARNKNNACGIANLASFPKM
Items are presented alongside their recorded Ki.

COc1ccc(NCCNC(=O)[C@@H](CC(C)C)NC(=O)c2ccc(-c3ccccc3)cc2)cc1 [reference compound]	< 100 nM

Field: next molecule
Task item: Item CC(C)C[C@H](NC(=O)OCc1ccccc1)C(=O)NCCNc1cccc2ccccc12 [reference compound] : provide Ki
Reply: < 100 nM

----------
target-or-test-system: Cathepsin K (Homo sapiens)
experiment-notes: Cathepsin K inhibition assay (fluorogenic peptide substrate); selectivity ratio vs cathepsin S
Assay type: biochemical
cond: ratio of cathepsin K inhibition constant to cathepsin S inhibition constant; Table II
experimental-endpoint: Selectivity for Cat. S over Cat. K

Some solved cases for reference:
CC[C@H](C(=O)N[C@@H](CC1CCCCC1)C(=O)NCCNc1ccc(OC)cc1)c1ccccc1	+++ (+++, >1000)
COc1ccc(NCCNC(=O)C(NC(=O)c2cccc(C)c2)c2ccc(OCc3ccccc3)cc2)cc1 (stereo not drawn)	+++ (+++, >1000)
COc1ccc(NCCNC(=O)[C@H](CCC2CCCCC2)NC(=O)c2ccc(N3CCOCC3)cc2)cc1	++ (++, >100)
O=C(N[C@@H](CC1CCCCC1)C(=O)NCCNc1ccc(OC(F)(F)F)cc1)c1ccc(-c2ccc(C(F)(F)F)cc2)o1	+++ (+++, >1000)
COc1ccc(NCCNC(=O)[C@H](Cc2ccccc2)NC(=O)NCc2ccc(F)cc2)cc1	+ (+, >10)

Task item: # return Selectivity for Cat. S over Cat. K of `COc1ccc(NCCNC(=O)[C@H](CC2CCCCC2)NC(=O)c2cnn(-c3ccc(OC)cc3)c2C)cc1` (system: Cathepsin K (Homo sapiens))
Reply: + (+, >10)

Task item: # return Selectivity for Cat. S over Cat. K of `COc1ccc(CC(=O)N[C@@H](CC2CCCCC2)C(=O)NCCNc2ccc(F)cc2)cc1` (system: Cathepsin K (Homo sapiens))
Reply: ++ (++, >100)

Task item: # return Selectivity for Cat. S over Cat. K of `COc1ccc(NCCNC(=O)[C@H](Cc2cccc(Cl)c2)NC(=O)c2ccc(-c3cccc(C(F)(F)F)c3)o2)cc1` (system: Cathepsin K (Homo sapiens))
Reply: +++ (+++, >1000)

Task item: # return Selectivity for Cat. S over Cat. K of `CS(=O)(=O)c1ccc(C(=O)N[C@@H](CC2CCCCC2)C(=O)NCCNc2ccc(F)cc2)s1` (system: Cathepsin K (Homo sapiens))
Reply: ++ (++, >100)

Task item: # return Selectivity for Cat. S over Cat. K of `O=C(N[C@@H](CC1CCCCC1)C(=O)NCCNc1ccc(OC(F)(F)F)cc1)c1ccoc1` (system: Cathepsin K (Homo sapiens))
Reply: ++ (++, >100)

Task item: # return Selectivity for Cat. S over Cat. K of `O=C(N[C@@H](CC1CCCCC1)C(=O)NCCNc1ccc(OC(F)(F)F)cc1)c1ccc(-c2ccccc2)s1` (system: Cathepsin K (Homo sapiens))
Reply: ++ (++, >100)

Task item: # return Selectivity for Cat. S over Cat. K of `Cc1ccc(-c2ccc(C(=O)N[C@@H](CC3CCCCC3)C(=O)NCCNc3ccc(OC(F)(F)F)cc3)s2)cc1` (system: Cathepsin K (Homo sapiens))
Reply: + (+, >10)
